Test Method Notes: log P determination
Format: physicochemical
Assay Setup: values marked *; HPLC, gradient method, acetonitrile/0.1% aqueous phosphoric acid, EEC Directive 79/831 Annex V. A8
Marks after values point to notes of the source that are not given here.
Recorded Metric: log p

Give the reported log p for this molecule. CC(C)CNc1c(-c2ccccc2Cl)c(Cl)nc2c(C(=O)NS(C)(=O)=O)cnn12
3.78*

Consider the molecule CC(C)(C)CNc1c(-c2c(F)cc(Cl)cc2F)c(Cl)nc2c(C(=O)NS(C)(=O)=O)cnn12 and give its recorded log p.
4.31*

Entry CC(C)(C)CNc1c(-c2ccc(Cl)cc2Cl)c(Cl)nc2c(C(=O)NS(C)(=O)=O)cnn12 needs its log p filled in; supply it.
4.63*

Indicate its recorded log p; the molecule in question is CC(C)CNc1c(-c2c(F)cc(F)cc2F)c(Cl)nc2c(C(=O)NS(C)(=O)=O)cnn12
3.59*

State its log p for this molecule: CC(C)Nc1c(-c2ccccc2Cl)c(Cl)nc2c(C(=O)NS(C)(=O)=O)cnn12
3.44*

State, in one line, measured log p of CC(C)Nc1c(-c2c(F)cc(Cl)cc2F)c(Cl)nc2c(C(=O)NS(C)(=O)=O)cnn12
3.68*

Look up and state reported log p for CC(C)CNc1c(-c2ccc(F)cc2Cl)c(Cl)nc2c(C(=O)NS(C)(=O)=O)cnn12
3.82*

Answer with the recorded log p for the molecule listed here: CC(C)(C)CNc1c(-c2c(F)cccc2Cl)c(Cl)nc2c(C(=O)NS(C)(=O)=O)cnn12
4.04*

Recall and state the measured log p for CC(C)(C)CNc1c(-c2ccc(F)cc2Cl)c(Cl)nc2c(C(=O)NS(C)(=O)=O)cnn12 .
4.19*

Input CC(C)(C)CNc1c(-c2c(F)cc(F)cc2F)c(Cl)nc2c(C(=O)NS(C)(=O)=O)cnn12 , output reported log p.
3.9*

New cases:
Item CC(C)CNc1c(-c2ccc(Cl)cc2Cl)c(Cl)nc2c(C(=O)NS(C)(=O)=O)cnn12 : provide log p
4.26*

Output log p of CC(C)Nc1c(-c2ccc(F)cc2Cl)c(Cl)nc2c(C(=O)NS(C)(=O)=O)cnn12
3.57*

Assign log p to the following record: CC(C)Nc1c(-c2c(F)cc(F)cc2F)c(Cl)nc2c(C(=O)NS(C)(=O)=O)cnn12
3.24*

Tell us which log p value is on record for CC(C)(C)CNc1c(-c2ccccc2Cl)c(Cl)nc2c(C(=O)NS(C)(=O)=O)cnn12
4.17*

Provide one value: measured log p of CC(C)CNc1c(-c2c(F)cc(Cl)cc2F)c(Cl)nc2c(C(=O)NS(C)(=O)=O)cnn12
3.97*
